# tested_on: HLA-B*5401 (human)
# assay_method_text: competition with 125I probe peptide, purified HLA

binder | unit_spec | IC50
FPTNASLSF (analog peptide) [Her2/neu.65.F1 (9-mer)] | nM | 556
MPNPEGRYTI (analog peptide) [Her2/neu.282.I10] | nM | 46
FPNPEGRYTI (analog peptide) [Her2/neu.282.F1] | nM | 3.2
